Target: Major prion protein (Homo sapiens) (UniProt P04156)
Test: Binding affinity to human PrPC at 40 uM
Reported RUmax values for a set of molecules
Note: unit % is implicit; provide only the numeric part.

Answered cases to consult:
- smiles_code: "COC(=O)c1ccc(-c2c(C#N)c(N)nc(Sc3ccc(C(=O)O)cc3)c2C#N)cc1"
  RUmax, %: 5.9
- smiles_code: "COC(=O)c1ccc(-c2c(C#N)c(N)nc(Sc3ccc(NC(C)=O)cc3)c2C#N)cc1"
  RUmax, %: 9.4
- smiles_code: "COC(=O)c1cccc(Sc2nc(N)c(C#N)c(-c3ccccc3)c2C#N)c1"
  RUmax, %: 125
- smiles_code: "CS(=O)(=O)c1ccc(-c2c(C#N)c(N)nc(Sc3ccc(O)cc3)c2C#N)cc1"
  RUmax, %: 0
- smiles_code: "N#Cc1c(N)nc(Sc2ccc(O)cc2)c(C#N)c1-c1ccc(O)c(Cl)c1"
  RUmax, %: 53.4
- smiles_code: "N#Cc1c(N)nc(Sc2ccc(O)cc2)c(C#N)c1-c1ccc(O)c(F)c1"
  RUmax, %: 44.2
- smiles_code: "COC(=O)c1ccc(Sc2nc(N)c(C#N)c(-c3ccc(C(=O)OC)cc3)c2C#N)cc1"
  RUmax, %: 0
- smiles_code: "CC(=O)c1ccc(-c2c(C#N)c(N)nc(Sc3ccc(O)cc3)c2C#N)cc1"
  RUmax, %: 0

Ask: GET /values?readout=RUmax&item= N#Cc1c(N)nc(Sc2ccc(Cl)cc2)c(C#N)c1-c1ccccc1
Result: 0

Ask: Repeat for the following molecule: N#Cc1c(N)nc(Sc2ccc(O)cc2)c(C#N)c1-c1cccc(O)c1
Result: 34

Ask: Same read-out for COC(=O)c1ccc(Sc2nc(N)c(C#N)c(-c3ccc(O)cc3)c2C#N)cc1 ?
Result: 0

Ask: Now the molecule COC(=O)c1ccc(Sc2nc(N)c(C#N)c(-c3ccccc3)c2C#N)cc1
Result: 0

====

Target: Major prion protein (Homo sapiens)
Assay: Binding affinity to truncated human PrPC at 40 uM
Measured RUmax, listed per entry.
Reply numerically in %, unit not repeated.

Example results:
- smiles_code: "N#Cc1c(N)nc(Sc2cccc(O)c2)c(C#N)c1-c1ccccc1"
  RUmax (%): 37.6
- smiles_code: "N#Cc1c(N)nc(Sc2cccc(Cl)c2)c(C#N)c1-c1ccc(Cl)cc1"
  RUmax (%): 56.5
- smiles_code: "COC(=O)c1ccc(Sc2nc(N)c(C#N)c(-c3ccc(O)cc3)c2C#N)cc1"
  RUmax (%): 0
- smiles_code: "COC(=O)c1ccc(-c2c(C#N)c(N)nc(Sc3ccc(C(=O)O)cc3)c2C#N)cc1"
  RUmax (%): 0
- smiles_code: "COC(=O)c1ccc(Sc2nc(N)c(C#N)c(-c3ccc(C(=O)OC)cc3)c2C#N)cc1"
  RUmax (%): 0
- smiles_code: "COc1ccc(-c2c(C#N)c(N)nc(Sc3ccccc3)c2C#N)cc1"
  RUmax (%): 0
- smiles_code: "N#Cc1c(N)nc(Sc2ccccc2)c(C#N)c1-c1ccccc1"
  RUmax (%): 0
- smiles_code: "COC(=O)c1cccc(Sc2nc(N)c(C#N)c(-c3ccccc3)c2C#N)c1"
  RUmax (%): 26.8

Ask: Suppose we examine the compound N#Cc1c(N)nc(Sc2ccc(O)cc2)c(C#N)c1-c1ccc(O)c(F)c1 ; what RUmax value has been reported?
Result: 28

Ask: Now consider COc1cccc(-c2c(C#N)c(N)nc(Sc3ccccc3)c2C#N)c1 .
Result: 0

Ask: Consider next the compound COc1cccc(-c2c(C#N)c(N)nc(Sc3cccc(Cl)c3)c2C#N)c1 in the same way.
Result: 6.7

Ask: Note, next up: CC(=O)Nc1ccc(Sc2nc(N)c(C#N)c(-c3c(F)cccc3F)c2C#N)cc1
Result: 20

Ask: Now consider N#Cc1c(N)nc(Sc2ccc(O)cc2)c(C#N)c1-c1cccc(O)c1 and answer again.
Result: 23.1

Ask: Likewise for CS(=O)(=O)c1ccc(-c2c(C#N)c(N)nc(Sc3ccc(O)cc3)c2C#N)cc1 ?
Result: 0

Ask: Please answer likewise for CC(=O)Nc1ccc(Sc2nc(N)c(C#N)c(-c3cc(F)cc(F)c3)c2C#N)cc1
Result: 0

Ask: Next: N#Cc1c(N)nc(Sc2cccc(Cl)c2)c(C#N)c1-c1ccccc1
Result: 0

Ask: Cool, now N#Cc1c(N)nc(Sc2ccccc2F)c(C#N)c1-c1cccc(O)c1
Result: 9.2

====

Target: Major prion protein (Homo sapiens) (UniProt P04156)
Experiment: Binding affinity to human PrPC at 40 uM
# key: entry, value: RUmax
Entry rule: numbers only, all in %.

Here is how some molecules turned out for RUmax.
- smiles_code: "COC(=O)c1ccc(-c2c(C#N)c(N)nc(Sc3cccc(Cl)c3)c2C#N)cc1"
  RUmax [%]: 0
- smiles_code: "COc1cccc(-c2c(C#N)c(N)nc(Sc3cccc(Cl)c3)c2C#N)c1"
  RUmax [%]: 8.6
- smiles_code: "COC(=O)c1ccc(-c2c(C#N)c(N)nc(Sc3cccc(C(=O)OC)c3)c2C#N)cc1"
  RUmax [%]: 0

Ask: What value of RUmax has been recorded for this entry: N#Cc1c(N)nc(Sc2cccc(Cl)c2)c(C#N)c1-c1ccccc1
Result: 0

Ask: Record: CC(=O)Nc1ccc(Sc2nc(N)c(C#N)c(-c3cc(F)cc(F)c3)c2C#N)cc1
Result: 0

Ask: Field entry: N#Cc1c(N)nc(Sc2ccccc2F)c(C#N)c1-c1cccc(O)c1
Result: 17.2

Ask: Item: CC(=O)Nc1ccc(Sc2nc(N)c(C#N)c(-c3c(F)cccc3F)c2C#N)cc1
Result: 37.3

Ask: Now give it for N#Cc1c(N)nc(Sc2cccc(O)c2)c(C#N)c1-c1ccccc1 too.
Result: 70.3

Ask: Lookup COc1ccc(-c2c(C#N)c(N)nc(Sc3cccc(Cl)c3)c2C#N)cc1
Result: 0
